target.of.assay: HLA-A*29:02
method.summary: IEDB peptide-MHC binding, purified MHC/competitive/radioactivity; filed as Kd, often an IC50 or EC50 that approximates it; bounds were set here for any values at or beyond the usual limits of such assays
test.settings: source organism: Mammarenavirus tacaribeense
measured.attribute: Kd (nM)
Quick note: give the figure in nM, leave out the unit.

Prompt: Entry under review: SFYCDPKRFF . Reported Kd?
Response: 156

====

target.of.assay: HLA-A*32:01
method.summary: IEDB peptide-MHC binding, purified MHC/competitive/radioactivity; filed as Kd, often an IC50 or EC50 that approximates it; bounds were set here for any values at or beyond the usual limits of such assays
test.settings: source organism: Dengue virus 3 Martinique/1243/1999
Examples of sequences with documented pKd follow.
Kindly note that pKd refers to -log10 of the concentration in mol/L and answer with the value alone.

Solved cases (3 shown):
| residues | pKd |
| --- | --- |
| KTALLIVSG | 5.17 |
| EDMLTVWNRV | 4.87 |
| RQWFFDLPL | 8.93 |

Prompt: What value of pKd has been reported for the following sequence? ATGPITTLW
Response: 6.66

====

target.of.assay: HLA-A*01:01
method.summary: IEDB peptide-MHC binding, purified MHC/direct/fluorescence; filed as Kd, often an IC50 or EC50 that approximates it; bounds were set here for any values at or beyond the usual limits of such assays
test.settings: source organism: Mammarenavirus lassaense
pKd: −log10 of the molar value.
measured.attribute: pKd

Prompt: Entry VPHVIEEVM : reported pKd = ?
Response: ≤ 4.70

====

target.of.assay: HLA-A*02:01
method.summary: IEDB peptide-MHC binding, purified MHC/direct/fluorescence; filed as Kd, often an IC50 or EC50 that approximates it; bounds were set here for any values at or beyond the usual limits of such assays
test.settings: source organism: Entamoeba histolytica HM-1:IMSS
pKd: −log10 of the molar value.
measured.attribute: pKd

Prompt: Which value of pKd has been reported for DSFAKQPQW in the records?
Response: ≤ 4.70

====

target.of.assay: HLA-A*01:01
method.summary: IEDB peptide-MHC binding, purified MHC/competitive/fluorescence; bounds were set here for any values at or beyond the usual limits of such assays
test.settings: source organism: Vaccinia virus Copenhagen
measured.attribute: IC50

Prompt: // lookup IC50 for VTAASPMLY
Response: 1290 nM

====

target.of.assay: HLA-B*08:01
method.summary: IEDB peptide-MHC binding, purified MHC/competitive/fluorescence; filed as Kd, often an IC50 or EC50 that approximates it; bounds were set here for any values at or beyond the usual limits of such assays
test.settings: source organism: Influenza A virus H3N2
measured.attribute: Kd (µM)
Report as a plain number; the unit µM is understood.

Prompt: Fill in: Kd of ITKEKKEEL is ___
Response: 4.81

====

target.of.assay: HLA-A*68:02
method.summary: IEDB peptide-MHC binding, purified MHC/competitive/radioactivity; filed as Kd, often an IC50 or EC50 that approximates it; bounds were set here for any values at or beyond the usual limits of such assays
test.settings: source organism: Vaccinia virus WR
pKd: −log10 of the molar value.
Below: a set of entries, each annotated with reported pKd.

Examples with answers:
| residues | target.of.assay | endpoint.value |
| --- | --- | --- |
| TLNHVLALK | HLA-A*68:02 | ≤ 4.11 |
| LPRPDTRHL | HLA-A*68:02 | ≤ 4.11 |

Now consider the entry below.
Prompt: Name the reported pKd value associated with the sequence NTYLFNILY
Response: 5.13

====

target.of.assay: HLA-A*26:01
method.summary: IEDB peptide-MHC binding, purified MHC/direct/fluorescence; filed as Kd, often an IC50 or EC50 that approximates it; bounds were set here for any values at or beyond the usual limits of such assays
test.settings: source organism: Influenza A virus (A/SW/KS/13481-T/00(H1N2))
measured.attribute: Kd

Prompt: Kd lookup needed for HEKGINPNY , thanks.
Response: ≥ 20 µM

====

target.of.assay: HLA-A*02:01
method.summary: IEDB peptide-MHC binding, purified MHC/competitive/fluorescence; filed as Kd, often an IC50 or EC50 that approximates it; bounds were set here for any values at or beyond the usual limits of such assays
test.settings: source organism: Vaccinia virus WR
measured.attribute: pKd
pKd is defined as minus the log10 of a concentration measured in mol/L.

Prompt: API: value(readout= pKd, system= HLA-A*02:01, query= KMTLFKSIL )
Response: 5.89

====

target.of.assay: HLA-B*15:09
method.summary: IEDB peptide-MHC binding, purified MHC/competitive/fluorescence; filed as Kd, often an IC50 or EC50 that approximates it; bounds were set here for any values at or beyond the usual limits of such assays
test.settings: source organism: Hepatovirus A
measured.attribute: Kd (nM)
The answer is to be given in nM; state only the numeric part.

Prompt: Fill in the blank: the reported Kd of YMYAVSGAL is ____.
Response: 322

====

target.of.assay: HLA-B*27:05
method.summary: IEDB peptide-MHC binding, purified MHC/direct/fluorescence; filed as Kd, often an IC50 or EC50 that approximates it; bounds were set here for any values at or beyond the usual limits of such assays
test.settings: source organism: Mycobacterium tuberculosis
measured.attribute: Kd

Take a look at these entries with their results.
| residues | Kd |
| --- | --- |
| GPRGRHVVL | ≥ 20 µM |
| ALYLLDGLR | ≥ 20 µM |

Prompt: Form entry - test system: HLA-B*27:05; read-out: Kd; sequence: TLLESFLFY
Response: ≥ 20 µM

====

target.of.assay: HLA-B*44:02
method.summary: IEDB peptide-MHC binding, purified MHC/direct/fluorescence; filed as Kd, often an IC50 or EC50 that approximates it; bounds were set here for any values at or beyond the usual limits of such assays
test.settings: source organism: Vibrio cholerae
measured.attribute: Kd

Prompt: Kd for RYDYANLCQ ?
Response: ≥ 20 µM

====

target.of.assay: HLA-A*03:01
method.summary: IEDB peptide-MHC binding, purified MHC/direct/fluorescence; filed as Kd, often an IC50 or EC50 that approximates it; bounds were set here for any values at or beyond the usual limits of such assays
test.settings: source organism: Influenza A virus (A/goose/Guangxi/1097/2004(H5N1))
measured.attribute: Kd

Prompt: Would you mind telling me what Kd value was observed for KYTSGRQEK ?
Response: ≥ 20 µM

====

target.of.assay: HLA-A*11:01
method.summary: IEDB peptide-MHC binding, purified MHC/competitive/radioactivity; filed as Kd, often an IC50 or EC50 that approximates it; bounds were set here for any values at or beyond the usual limits of such assays
test.settings: source organism: SARS coronavirus Tor2
measured.attribute: Kd

Observe how each entry below is paired with its result.
| residues | Kd |
| --- | --- |
| QQQGQTVTKK | 0.407 µM |
| SVLNDILSR | 0.148 µM |
| ASAFFGMSR | 0.148 µM |
| LLNKEMYLK | 0.0169 µM |
| ITAKETLYR | 0.0183 µM |

Prompt: Form field: reported Kd of TTIKPVSYK
Response: 0.000759 µM

Prompt: Which Kd is listed for VFLILCFTIK ?
Response: 0.371 µM

Prompt: # input sequence: VVENPTIQK ; wanted: its Kd
Response: 0.00763 µM

Prompt: Request the reported Kd associated with SLLRSTSQK
Response: 0.0128 µM

Prompt: Which Kd value belongs to GFDAWFSQR ?
Response: ≥ 29.9 µM

Prompt: # Kd lookup, item CAAYYFMKFR
Response: 0.065 µM

Prompt: Which Kd reading was recorded for the sequence VFAQVKQMYK ?
Response: 0.0606 µM

Prompt: Would you kindly share the measured Kd for KSFNHVLKRK ?
Response: 0.00618 µM

Prompt: Need Kd of DLKWARFPK , thanks.
Response: 0.714 µM

Prompt: Fill blank: measured Kd of the sequence WLSYFVASFR is ____.
Response: 0.0145 µM

Prompt: Name the recorded Kd for GVVFLHVTY .
Response: 3.4 µM

Prompt: Return reported Kd; argument: AQPCSDKAYK
Response: 0.0676 µM

====

target.of.assay: HLA-B*15:17
method.summary: IEDB peptide-MHC binding, purified MHC/competitive/fluorescence; filed as Kd, often an IC50 or EC50 that approximates it; bounds were set here for any values at or beyond the usual limits of such assays
test.settings: source organism: Burkholderia pseudomallei 668
measured.attribute: Kd

Prompt: Consider the sequence ILFDRLPIA and give its measured Kd.
Response: ≥ 20 µM

====

target.of.assay: HLA-A*31:01
method.summary: IEDB peptide-MHC binding, purified MHC/direct/fluorescence; filed as Kd, often an IC50 or EC50 that approximates it; bounds were set here for any values at or beyond the usual limits of such assays
test.settings: source organism: Vibrio parahaemolyticus
pKd: −log10 of the molar value.
measured.attribute: pKd

Prompt: Give pKd (HLA-A*31:01) of the following sequence: LVAPHMAMM
Response: ≤ 4.70
